systemUnderTest: endogenous TEA domain protein (TEAD), detected with a pan-TEAD antibody, P28347
Sequence (P28347 whole entry, the tested form may be a part): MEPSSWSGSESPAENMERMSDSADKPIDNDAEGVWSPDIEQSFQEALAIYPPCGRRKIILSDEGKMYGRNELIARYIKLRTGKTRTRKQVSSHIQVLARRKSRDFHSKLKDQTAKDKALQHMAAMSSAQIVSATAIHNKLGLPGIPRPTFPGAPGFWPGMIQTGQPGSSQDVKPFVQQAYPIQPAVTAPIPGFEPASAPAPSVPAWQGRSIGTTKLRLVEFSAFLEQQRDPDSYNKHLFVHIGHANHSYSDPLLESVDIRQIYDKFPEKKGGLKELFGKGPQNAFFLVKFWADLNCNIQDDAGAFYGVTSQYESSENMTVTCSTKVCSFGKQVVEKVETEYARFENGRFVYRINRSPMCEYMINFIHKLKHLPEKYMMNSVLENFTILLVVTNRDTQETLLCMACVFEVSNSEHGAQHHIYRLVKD
protocolSummary: co-immunoprecipitation (α-Flag) with western blot quantification
conditionsUsed: chain shown with the change; lysates of transiently transfected HeLa cells; n = 3; parent: est. 1.0; read off a plot
assayMetric: ratio to parent
Number only, please.

Record excerpt, results attached:
binder: Flag-tagged wild-type GBP-1 fragment α7–13 (residues 311–582), P32455 L418A; E419A; E420A; E421A; V422A; K423A (protein) CMENAVLALAQIENSAAVQKAIAHYEQQMGQKVQLPTETLQELLDLHRDSEREAIEVFIRSSFKDVDHLFQKELAAQLEKKRDDFCKQNQEASSDRCSALLQVIFSPAAAAAAAGIYSKPGGYRLFVQKLQDLKKKYYEEPRKGIQAEEILQTYLKSKESMTDAILQTDQTLTEKEKEIEVERVKAESAQASAKMLQEMQRKNEQMMEQKERSYQEHLKQLTEKMENDRVQLLKEQERTLALKLQEQEQLLKEGFQKESRIMKNEIQDLQTK
ratio to parent: 0.95

binder: Flag-tagged wild-type GBP-1 fragment α7–13 (residues 311–582), P32455 V376A; D377A; H378A; L379A; F380A; Q381A; K382A (protein) CMENAVLALAQIENSAAVQKAIAHYEQQMGQKVQLPTETLQELLDLHRDSEREAIEVFIRSSFKDAAAAAAAELAAQLEKKRDDFCKQNQEASSDRCSALLQVIFSPLEEEVKAGIYSKPGGYRLFVQKLQDLKKKYYEEPRKGIQAEEILQTYLKSKESMTDAILQTDQTLTEKEKEIEVERVKAESAQASAKMLQEMQRKNEQMMEQKERSYQEHLKQLTEKMENDRVQLLKEQERTLALKLQEQEQLLKEGFQKESRIMKNEIQDLQTK
ratio to parent: 0.37

binder: Flag-tagged wild-type GBP-1 fragment α7–13 (residues 311–582), P32455 K390A; K391A; R392A; D393A; D394A; F395A; C396A (protein) CMENAVLALAQIENSAAVQKAIAHYEQQMGQKVQLPTETLQELLDLHRDSEREAIEVFIRSSFKDVDHLFQKELAAQLEAAAAAAAKQNQEASSDRCSALLQVIFSPLEEEVKAGIYSKPGGYRLFVQKLQDLKKKYYEEPRKGIQAEEILQTYLKSKESMTDAILQTDQTLTEKEKEIEVERVKAESAQASAKMLQEMQRKNEQMMEQKERSYQEHLKQLTEKMENDRVQLLKEQERTLALKLQEQEQLLKEGFQKESRIMKNEIQDLQTK
ratio to parent: 1.6

Which measured ratio to parent value corresponds to Flag-tagged wild-type GBP-1 fragment α7–13 (residues 311–582), P32455 E383A; L384A; Q387A; L388A; E389A (protein) CMENAVLALAQIENSAAVQKAIAHYEQQMGQKVQLPTETLQELLDLHRDSEREAIEVFIRSSFKDVDHLFQKAAAAAAAKKRDDFCKQNQEASSDRCSALLQVIFSPLEEEVKAGIYSKPGGYRLFVQKLQDLKKKYYEEPRKGIQAEEILQTYLKSKESMTDAILQTDQTLTEKEKEIEVERVKAESAQASAKMLQEMQRKNEQMMEQKERSYQEHLKQLTEKMENDRVQLLKEQERTLALKLQEQEQLLKEGFQKESRIMKNEIQDLQTK ?
1.6

Quick one: ratio to parent for Flag-tagged wild-type GBP-1 fragment α7–13 (residues 311–582), P32455 S404A; D405A; R406A; C407A; S408A; L410A (protein) CMENAVLALAQIENSAAVQKAIAHYEQQMGQKVQLPTETLQELLDLHRDSEREAIEVFIRSSFKDVDHLFQKELAAQLEKKRDDFCKQNQEASAAAAAAALQVIFSPLEEEVKAGIYSKPGGYRLFVQKLQDLKKKYYEEPRKGIQAEEILQTYLKSKESMTDAILQTDQTLTEKEKEIEVERVKAESAQASAKMLQEMQRKNEQMMEQKERSYQEHLKQLTEKMENDRVQLLKEQERTLALKLQEQEQLLKEGFQKESRIMKNEIQDLQTK ?
1.1

Reported ratio to parent for Flag-tagged wild-type GBP-1 fragment α7–13 (residues 311–582), P32455 K397A; Q398A; N399A; Q400A; E401A; S403A (protein) CMENAVLALAQIENSAAVQKAIAHYEQQMGQKVQLPTETLQELLDLHRDSEREAIEVFIRSSFKDVDHLFQKELAAQLEKKRDDFCAAAAAAASDRCSALLQVIFSPLEEEVKAGIYSKPGGYRLFVQKLQDLKKKYYEEPRKGIQAEEILQTYLKSKESMTDAILQTDQTLTEKEKEIEVERVKAESAQASAKMLQEMQRKNEQMMEQKERSYQEHLKQLTEKMENDRVQLLKEQERTLALKLQEQEQLLKEGFQKESRIMKNEIQDLQTK : what is it?
1.7
